assay: NCI Yeast Anticancer Drug Screen. Data for the bub3 strain (AID 167); conditions: S. cerevisiae bub3 mutant strain, at 50.0 µM, stronger effect = higher value
This is part of a sample that, as a whole, favours compounds with a hit. Of some 79,000 tested, about 15% had one in any assay.
Entries and their growth inhibition values follow.
Value kind: growth inhibition (%)

INSERT INTO measurements (compound, numeric_readout) VALUES
  ('CC(=O)NNC(=S)N/C=C(/C(=O)c1ccccc1)c1ccccc1', -16.4),
  ('CC1CCP(=O)(c2ccccc2)CC1 (stereo unspecified)', -7.3),
  ('O=C1CC(c2ccccc2)C(c2ccccc2)C1C(=O)OCCc1ccccc1 (stereo unspecified)', -16.9),
  ('CS(=O)(=O)Oc1ncc(Cl)cc1Cl', 1.35),
  ('OC1CC2CCC(C1)N2c1ccccc1 (stereo unspecified)', 19.1),
  ('CC(C)NC(=O)c1ccccc1S(=O)c1ccccc1C(=O)NC(C)C', 5.05),
  ('O=C(CN1CCCC1=O)CS(=O)(=O)c1ccccc1', -9.6),
  ('CCCCNCC(=O)O[C@]1(CC)C(=O)OCc2c1cc1n(c2=O)Cc2cc3ccccc3nc2-1', 40.2),
  ('COC1CC(NC(C)=O)C(OC(=O)c2ccccc2)C(CBr)O1 (stereo unspecified)', -1.8),
  ('O=C(CCCC(=O)N/N=C/c1cccc([N+](=O)[O-])c1)N/N=C\c1cccc([N+](=O)[O-])c1', 2.45),
  ('C/C(=N\O)c1sc(-n2nc(-c3ccccc3)cc2-c2ccccc2)nc1C', 30.6);

====

assay: NCI Yeast Anticancer Drug Screen. Data for the cln2 rad14 strain (AID 165);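 further: 0% = growth equal to vehicle treated cultures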; details: S. cerevisiae cln2 rad14 strain, at 50.0 µM
Compounds without any hit were thinned out: in the full panel of roughly 79,000, 15% have a hit. Calls of active or inactive are those of the source. Cut-off read from the data, not from the text of the source: active = growth inhibition above about 70%; inactive = the rest.
Possible outcomes: YES (active), NO (inactive)

INSERT INTO assay_data (compound, category_label) VALUES
  ('c1ccc2c(c1)[nH]c1c2ncc2[nH]c3ccccc3c21', 'NO'),
  ('CC(=O)/C(=C\I)c1ccccc1', 'YES'),
  ('CN(C)/C=N\c1ncnc2c1ccn2C1OC(CO)C(O)C1O (stereo unspecified)', 'NO'),
  ('CC1=NN(C(=O)c2ccncc2)C(=O)C1N=Nc1ccc([N+](=O)[O-])cc1Cl (stereo unspecified)', 'NO'),
  ('O=C1C=C(C2=CC(=O)C(=O)c3ccccc32)c2ccccc2C1=O', 'NO'),
  ('O=S(=O)(c1ccccc1)c1cccc2c[n+]3ccccc3cc12', 'NO'),
  ('CN(C)c1ccc(S(=O)(=O)c2ccc3nc(N)nc(N)c3c2)cc1', 'NO'),
  ('Cc1nnc2n1N=C(c1ccc(-c3ccc([N+](=O)[O-])cc3)o1)CS2', 'NO'),
  ('CCc1nc(N)nc(N)c1-c1ccc2c(c1)nnn2CCc1ccccc1', 'NO'),
  ('CCCCN(CCCC)CCC(O)c1cc(-c2ccc(Cl)c(Cl)c2)nc2c(Cl)cc(Cl)cc12 (stereo unspecified)', 'YES'),
  ('CCCCOC(=O)NCNC(=O)OCCCC', 'NO'),
  ('Cc1cc2ccccc2[nH]1', 'NO'),
  ('CCOC(=O)C(C)C(=O)NCc1ccccc1 (stereo unspecified)', 'NO'),
  ('CC1CCC(C(C)C)N(C)CC1 (stereo unspecified)', 'NO'),
  ('CCN(CC)CCNC(=O)c1cn2c(ccc3sc4ccccc4c(=O)c32)n1', 'NO'),
  ('CC1(C)c2ccccc2C(=O)C12CCC(=O)CC2', 'NO'),
  ('CCCCCCCCCCCCCCCCCC#N', 'NO'),
  ('Cc1nc(N)nc(C)c1N=Nc1ccc(Br)cc1Br', 'NO'),
  ('COC(=O)C(=O)C1CSC2=C(CS(=O)(=O)c3ccccc32)C1=O (stereo unspecified)', 'NO'),
  ('O=C(CCCCCCCCC(=O)NCC1(c2ccccc2)CCNCC1)NCC1(c2ccccc2)CCNCC1', 'NO'),
  ('Oc1ccc(N=Nc2ccccc2)c(O)c1', 'NO'),
  ('O=C1C(Cl)(Cl)C(=O)C(Cl)(Cl)C(=O)C1(Cl)Cl', 'NO'),
  ('Oc1ccccc1C=Nc1ccccc1', 'NO'),
  ('Nc1nc(N)c2ccccc2n1', 'NO'),
  ('CC(CCCSC(=N)N)SC(=N)N (stereo unspecified)', 'NO'),
  ('Cc1nc2c(o1)C(=O)c1ccccc1C2=Nc1ccc(N2CCOCC2)cc1', 'NO'),
  ('CC(=O)N(C)Nc1ccccc1', 'NO'),
  ('CN(C)C(=O)C1CCC(=O)N1 (stereo unspecified)', 'NO'),
  ('CC1=CC(C)(C)NC(=S)N1c1ccc(O)cc1', 'NO'),
  ('CC(=O)OC(C(=O)Nc1nncs1)c1ccccc1 (stereo unspecified)', 'NO'),
  ('CC(Sc1nc2ccccc2c(=O)[nH]1)c1ccccc1 (stereo unspecified)', 'NO'),
  ('CC(C)OC/N=C(/N)NC#N', 'NO'),
  ('Cc1ncc(-c2ccccc2)o1', 'NO'),
  ('CS(=O)CCN=Cc1ccc(N=Nc2ccc(O)cc2)cc1 (stereo unspecified)', 'NO'),
  ('CCCCc1ccc2[n+](c1)C(C(=O)OCC)=PC2 (stereo unspecified)', 'NO'),
  ('CC1=CCC(C(C)(C)OCCCO)CC1 (stereo unspecified)', 'NO'),
  ('CC(=O)c1c(C)c([N+](=O)[O-])c(C)c([N+](=O)[O-])c1C', 'NO'),
  ('Cn1cnc2c([nH]c(=O)n2C2OC(CO)C(O)C2O)c1=N (stereo unspecified)', 'NO'),
  ('CCc1cccc(CC)c1N=C(NC(=O)c1ccc(Br)cc1)SC', 'NO'),
  ('O=S(=O)(c1ccc(OCCOc2ccc(S(=O)(=O)N3CCOCC3)cc2)cc1)N1CCOCC1', 'NO'),
  ('CCCC(C)C(=O)OCCOCC (stereo unspecified)', 'NO'),
  ('O=S(=O)(Nc1ccccc1)c1cc(O)ccc1O', 'NO'),
  ('C=C[C@@]1(C)CC2CC[C@]3(C)C(C)=CC(=O)CC3[C@]2(C)CC1O (stereo partly specified)', 'NO'),
  ('Cc1ccc(NC(=O)Oc2ccc3ccccc3c2)cc1NC(=O)Oc1ccc2ccccc2c1', 'NO'),
  ('C#CC(OC(=O)NC(C(=O)OC)C(C)C)(c1ccccc1)c1ccccc1 (stereo unspecified)', 'NO'),
  ('C(=N\N=C\c1ccccc1)/c1ccccc1', 'NO'),
  ('O=C(O)c1cccc(-c2nn[nH]n2)c1', 'NO'),
  ('CCOC(=N)CC(=O)NC(C)c1ccccc1 (stereo unspecified)', 'NO'),
  ('CCOP(=O)(OCC)/C(C#N)=C/c1cc(OC)ccc1OC', 'NO'),
  ('Cc1ccc2occ(-c3nnc(NC(=O)c4ccccc4)s3)c(=O)c2c1', 'NO'),
  ('O=C(c1ccccc1)C(N=Nc1ccccc1)(c1ccccc1)c1ccccc1', 'NO');

// data source = PubChem BioAssay (NCI)
